study system: T1, ZIKV quad-fusion-loop variant of the E ectodomain (ZIKV E-FL) (Zika virus, strain H/PF/2013)
T1 construct: Variant of m8
procedure text: direct ELISA, antigen coated at 2 µg/ml, mAb at 0.5 µg/ml, OD 450 nm
attribute measured: binding result

1. ZV-2 monoclonal antibody (antibody, V domains shown, also called ZIKV-2) VH: QVQLQESGAELMKPGASVKLSCKTSGYTFIGYWIEWLKQRPGHGLEWVGEIFPGSGRTKYNEKFKGRATFTADTSSNMAYMQLSSLTTEDSAIYYCARYYYGSYYALDYWGQGTSVTVSS VL: DIVMTQSPSSLSVSAGEKVTLSCKSSQSLLHSGNQKNYLAWYQQKPGQAPKLLIYGASTRESGVPDRFTGSGSGTDFTLTISSVQAEDLAVYYCQNDHSYPLTFGAGTKLELK = binds
